system: S. aureus Newman; assay: Bliss interaction score (quartile over a dose matrix) (fitness difference); higher = more antagonism (negative = synergy);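 also: first quartile when negative (synergy) and third quartile when positive (antagonism)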
Recorded Endpoint: Bliss interaction score
Answer with a bare number; do not write a unit.

Consider the reported Bliss interaction score for these compounds:
compound="CCCCCCCCCC(=O)N[C@@H](Cc1c[nH]c2ccccc12)C(=O)N[C@H](CC(N)=O)C(=O)N[C@@H](CC(=O)O)C(=O)N[C@@H]1C(=O)NCC(=O)N[C@@H](CCCN)C(=O)N[C@@H](CC(=O)O)C(=O)N[C@H](C)C(=O)N[C@@H](CC(=O)O)C(=O)NCC(=O)N[C@H](CO)C(=O)N[C@@H]([C@H](C)CC(=O)O)C(=O)N[C@@H](CC(=O)c2ccccc2N)C(=O)O[C@@H]1C [Daptomycin] + C[C@H]1COc2c(N3CCN(C)CC3)c(F)cc3c(=O)c(C(=O)O)cn1c23 [Levofloxacin]" result=-0.0469
compound="CN(C)C(=O)C(CCN1CCC(O)(c2ccc(Cl)cc2)CC1)(c1ccccc1)c1ccccc1 [Loperamide] + COc1cc(Cc2cnc(N)nc2N)cc(OC)c1OC [Trimethoprim]" result=0.0605

// Input: CC1(C)S[C@@H]2[C@H](NC(=O)[C@H](N)c3ccc(O)cc3)C(=O)N2[C@H]1C(=O)O [Amoxicillin] + CN[C@@H]1[C@H](O)[C@H](NC)[C@H]2O[C@@]3(O)C(=O)C[C@@H](C)O[C@H]3O[C@@H]2[C@H]1O [Spectinomycin] . Output its Bliss interaction score only.
0.0408

---

system: S. aureus Newman; assay: Bliss interaction score (quartile over a dose matrix) (fitness difference); higher = more antagonism (negative = synergy);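 also: first quartile when negative (synergy) and third quartile when positive (antagonism)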
Reported Bliss interaction score values are given for each entry in this list.
Kindly provide the number alone.

Answered cases to consult:
compound="C[C@H]1COc2c(N3CCN(C)CC3)c(F)cc3c(=O)c(C(=O)O)cn1c23 [Levofloxacin] + C[n+]1ccc(-c2cc[n+](C)cc2)cc1 [Paraquat]" result=-0.0586
compound="CC1(C)S[C@@H]2[C@H](NC(=O)[C@H](N)c3ccc(O)cc3)C(=O)N2[C@H]1C(=O)O [Amoxicillin] + CN[C@@H]1[C@H](O[C@H]2[C@H](O[C@H]3[C@H](O)[C@@H](O)[C@H](N=C(N)N)[C@@H](O)[C@@H]3N=C(N)N)O[C@@H](C)[C@]2(O)C=O)O[C@@H](CO)[C@H](O)[C@H]1O [Streptomycin]" result=-0.0764
compound="CCCCCCCCCC(=O)N[C@@H](Cc1c[nH]c2ccccc12)C(=O)N[C@H](CC(N)=O)C(=O)N[C@@H](CC(=O)O)C(=O)N[C@@H]1C(=O)NCC(=O)N[C@@H](CCCN)C(=O)N[C@@H](CC(=O)O)C(=O)N[C@H](C)C(=O)N[C@@H](CC(=O)O)C(=O)NCC(=O)N[C@H](CO)C(=O)N[C@@H]([C@H](C)CC(=O)O)C(=O)N[C@@H](CC(=O)c2ccccc2N)C(=O)O[C@@H]1C [Daptomycin] + COc1c(N2C[C@@H]3CCCN[C@@H]3C2)c(F)cc2c(=O)c(C(=O)O)cn(C3CC3)c12 [Moxifloxacin]" result=0.0375
compound="CCN(CC)CCOC(=O)c1ccc(N)cc1 [Procaine] + CN[C@@H]1[C@H](O)[C@H](NC)[C@H]2O[C@@]3(O)C(=O)C[C@@H](C)O[C@H]3O[C@@H]2[C@H]1O [Spectinomycin]" result=0.0891
compound="CC1(C)S[C@@H]2[C@H](NC(=O)[C@H](N)c3ccc(O)cc3)C(=O)N2[C@H]1C(=O)O [Amoxicillin] + CO[C@@]12[C@H](COC(N)=O)C3=C(C(=O)C(C)=C(N)C3=O)N1C[C@@H]1N[C@@H]12 [MitomycinC]" result=0.0558
compound="C[C@H]1COc2c(N3CCN(C)CC3)c(F)cc3c(=O)c(C(=O)O)cn1c23 [Levofloxacin] + C/C(=C\\C(=O)OCCCCCCCCC(=O)O)C[C@@H]1OC[C@H](C[C@@H]2O[C@H]2[C@@H](C)[C@H](C)O)[C@@H](O)[C@H]1O [Pseudomonic acid]" result=0.0537

Okay, next one:
Return Bliss interaction score for the following compound: CN(C)C(=O)C(CCN1CCC(O)(c2ccc(Cl)cc2)CC1)(c1ccccc1)c1ccccc1 [Loperamide] + CC1(C)S[C@@H]2[C@H](NC(=O)Cc3ccccc3)C(=O)N2[C@H]1C(=O)O [PenicillinG]
-0.068

These entries and their values trace back to the supplement of paper PMC10627819.
